# Target Or Test System: ALDH2*1/*1 (Homo sapiens, UniProt P05091)
# Construct: His-tag (N); made in house; host or cells: E. coli BL21 (pTrcHis vector)
# Sequence (P05091 18-517): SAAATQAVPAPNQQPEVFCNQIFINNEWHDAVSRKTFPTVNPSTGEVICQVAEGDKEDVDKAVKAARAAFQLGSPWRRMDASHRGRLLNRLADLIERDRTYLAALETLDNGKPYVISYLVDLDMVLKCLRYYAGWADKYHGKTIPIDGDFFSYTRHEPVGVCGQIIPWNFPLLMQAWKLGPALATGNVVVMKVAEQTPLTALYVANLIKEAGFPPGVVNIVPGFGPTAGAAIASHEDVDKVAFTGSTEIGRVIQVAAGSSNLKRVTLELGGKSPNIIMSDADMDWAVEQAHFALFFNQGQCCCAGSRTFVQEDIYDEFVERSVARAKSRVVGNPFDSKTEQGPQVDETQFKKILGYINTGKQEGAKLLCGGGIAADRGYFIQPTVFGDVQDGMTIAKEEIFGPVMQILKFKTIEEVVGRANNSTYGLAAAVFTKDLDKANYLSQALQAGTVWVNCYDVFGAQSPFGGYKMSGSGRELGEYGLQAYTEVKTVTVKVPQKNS
# Method Notes: ALDH2 enzymatic activity, NADH accumulation at 340 nm, acetaldehyde substrate, wild type
# Assay type: biochemical
# Test Parameters: 20 μM compound; relative to baseline enzymatic activity (100%)
The following compounds are listed with their measured activity at 20 µM values.
Give the number; % is assumed, so skip it.

Record excerpt, results attached:
{"columns": ["Line Notation", "activity at 20 µM / %"],
 "data": [
  ["COc1ccc(CNC(=O)c2cc(-c3ccsc3CO)ccc2OCC2CC2)cc1F", 364],
  ["COc1ccc(CNC(=O)c2cc(-c3cc(F)ccc3CO)cnc2OCC2CC2)cc1F", 403],
  ["COc1ccc(CNC(=O)c2cc(-c3c(F)cccc3CO)ccc2OCC2CC2)cc1F", 437],
  ["COc1ccc(CNC(=O)c2cc(-c3cscc3CO)ccc2OCC2CC2)cc1F", 445]
]}

Now for the compound whose activity at 20 µM we want.
Recorded activity at 20 µM (compound COc1ccc(CNC(=O)c2cc(-c3ncccc3CO)ccc2OCC2CC2)cc1F ): 299

* * *

# Target Or Test System: ALDH2*1/*1 (Homo sapiens, UniProt P05091)
# Construct: His-tag (N); made in house; host or cells: E. coli BL21 (pTrcHis vector)
# Method Notes: ALDH2 enzymatic activity, NADH accumulation at 340 nm, acetaldehyde substrate, wild type
# Format: biochemical
# Test Parameters: 20 μM compound; relative to baseline enzymatic activity (100%)
Label key: class 1 means activity at 20 µM under 400%; class 0 means activity at 20 µM of 400% or more.

{"columns": ["Line Notation", "Label Value"],
 "data": [
  ["COc1ccc(CNC(=O)c2cc(-c3cccc(F)c3CO)ccc2OCC2CC2)cc1F", "class 1"]
]}

## Task Determine whether this compound shows activity at 20 µM lower than 400% (ties excluded): COc1ccc(CNC(=O)c2cc(-c3c(CO)cccc3N(C)C)cnc2OCC2CC2)cc1F
## Result class 1

## Task Quick check: does COc1ccc(CNC(=O)c2cc(-c3cc(F)ccc3CO)ccc2OCC2CC2)cc1F have activity at 20 µM under 400%?
## Result class 1

## Task In plain terms, does COc1ccc(CNC(=O)c2cc(-c3sccc3CO)ccc2OCC2CC2)cc1F come in under 400% for activity at 20 µM?
## Result class 0

## Task For COc1ccc(CNC(=O)c2cc(-c3ccc(F)cc3CO)ccc2OCC2CC2)cc1F , is the recorded activity at 20 µM below the cut-off of 400%?
## Result class 1

## Task Does COc1ccc(CNC(=O)c2cc(-c3c[n+]([O-])ccc3CO)ccc2OCC2CC2)cc1F have activity at 20 µM strictly under 400%?
## Result class 1
